test system: 323965-272-R-J2-PDC complex spheroid viability; assay: Anticancer human tumor 323965-272-R-J2-PDC patient-derived pancreatic carcinoma cell line growth inhibition [CLK]; conditions: second compound 3.16 µM; first compound 0.000949 µM; hits give low values;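 note: spheroids exposed to agents for seven days before readout; percent of DMSO vehicle control wells so 100% = untreated growth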
OBSERVABLE: viability, T/C (%)
Express the result in % but write the number alone.

Incoming: Notebook entry, 323965-272-R-J2-PDC complex spheroid viability assay: viability, T/C of C=CC(=O)Nc1cc(Nc2nccc(-c3cn(C)c4ccccc34)n2)c(OC)cc1N(C)CCN(C)C + CN1CCN(c2cc(C(=O)Nc3cc4cc(-c5cnn(C)c5)ccc4cn3)ccn2)CC1 = ?
Outgoing: 3.68

Incoming: Notebook entry, 323965-272-R-J2-PDC complex spheroid viability assay: viability, T/C of CC(C)CC(NC(=O)C(Cc1ccccc1)NC(=O)c1cnccn1)B(O)O (centres undefined) + CN1CCN(c2cc(C(=O)Nc3cc4cc(-c5cnn(C)c5)ccc4cn3)ccn2)CC1 = ?
Outgoing: 5.74

Incoming: Notebook entry, 323965-272-R-J2-PDC complex spheroid viability assay: viability, T/C of CC(C)CC(NC(=O)C(Cc1ccccc1)NC(=O)c1cnccn1)B(O)O (centres undefined) + CNC(=O)c1ccc(Nc2nc(OC3CCCC3)c3c(-c4ccc5nc(C)oc5c4)c[nH]c3n2)c(OC)c1 = ?
Outgoing: 48.7

Incoming: Notebook entry, 323965-272-R-J2-PDC complex spheroid viability assay: viability, T/C of C=CC(=O)Nc1cc(Nc2nccc(-c3cn(C)c4ccccc34)n2)c(OC)cc1N(C)CCN(C)C + CNC(=O)c1ccc(Nc2nc(OC3CCCC3)c3c(-c4ccc5nc(C)oc5c4)c[nH]c3n2)c(OC)c1 = ?
Outgoing: 36.6
